Target: T1, IL-18Rα/β heterodimer (Fc fused human IL-18Rα mixed with Fc fused human IL-18Rβ) (human, UniProt Q13478 19-329; O95256 20-356, limits assumed)
T1 construct: Alpha and beta Fc fusions were mixed and pre-incubated for 30 min before capture on anti-human IgG; also called alpha/beta heterodimer IL-18 receptor; heterodimeric human IL-18 receptor alpha (CD218a) and IL-18R accessory protein (IL-18RAP/CDw218b); not shown: Fc
T1 sequence (looked up) 1: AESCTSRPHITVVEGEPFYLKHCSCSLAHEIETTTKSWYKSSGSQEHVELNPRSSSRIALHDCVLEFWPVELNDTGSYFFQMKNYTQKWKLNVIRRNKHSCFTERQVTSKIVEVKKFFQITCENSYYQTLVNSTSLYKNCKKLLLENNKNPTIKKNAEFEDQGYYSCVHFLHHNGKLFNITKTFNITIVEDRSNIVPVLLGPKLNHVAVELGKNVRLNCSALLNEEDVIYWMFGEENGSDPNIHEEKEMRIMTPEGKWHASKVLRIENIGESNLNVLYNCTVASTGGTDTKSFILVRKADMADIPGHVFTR
T1 sequence (looked up) 2: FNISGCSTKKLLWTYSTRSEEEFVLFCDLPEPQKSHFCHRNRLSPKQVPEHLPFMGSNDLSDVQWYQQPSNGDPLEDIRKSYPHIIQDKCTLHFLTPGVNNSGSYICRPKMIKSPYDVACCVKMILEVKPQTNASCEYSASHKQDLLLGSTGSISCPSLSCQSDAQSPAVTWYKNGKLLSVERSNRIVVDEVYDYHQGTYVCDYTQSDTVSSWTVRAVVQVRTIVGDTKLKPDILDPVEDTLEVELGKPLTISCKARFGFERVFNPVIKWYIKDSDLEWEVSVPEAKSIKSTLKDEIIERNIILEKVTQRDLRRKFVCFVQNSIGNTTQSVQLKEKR
Test: SPR, Fc-IL-18Rα/β captured, heterogeneous ligand fit
Metric: koff (s⁻¹)
Numbers only; they are read as s⁻¹.

| Binder | Quantity unit | koff |
| --- | --- | --- |
| IL-18 variant SEQ ID NO: 62 with 30 kDa PEG (E6K, C38A, K53A, C127A, C68-30kPEG) (ligand, 30 kDa PEG on Cys 68 (C68-30kPEG), also called 62 + PEG) YFGKLKSKLSVIRNLNDQVLFIDQGNRPLFEDMTDSDARDNAPRTIFIISMYADSQPRGMAVTISVKCEKISTLSCENKIISFKEMNPPDNIKDTKSDIIFFQRSVPGHDNKMQFESSSYEGYFLAAEKERDLFKLILKKEDELGDRSIMFTVQNED | s⁻¹ | 0.000779 |

Challenge: GET /values?readout=koff&item= IL-18 variant SEQ ID NO: 30 with 30 kDa PEG (E6K, V11I, C38A, K53A, T63A, C76A, C127A, C68-30kPEG) (ligand, 30 kDa PEG on Cys 68 (C68-30kPEG), also called 30 + PEG30; 30 + PEG) YFGKLKSKLSIIRNLNDQVLFIDQGNRPLFEDMTDSDARDNAPRTIFIISMYADSQPRGMAVAISVKCEKISTLSAENKIISFKEMNPPDNIKDTKSDIIFFQRSVPGHDNKMQFESSSYEGYFLAAEKERDLFKLILKKEDELGDRSIMFTVQNED
Response given: 0.000618

Data provenance is patent US20250186594A1.
